Kindly state pIC50 for each of the entries shown.
System: MCF-7
Test: MTT anti-proliferative assay, MCF-7
Type: cell-based
Settings: Homo sapiens, MCF7, 72 h, read-out: IC50 MCF-7
Answers are plain numbers, as −log10 of the molar value.

Reported pIC50 for MCF-7, given NC1=NOC(=O)C1=NNc1ccc(N=Nc2ccccc2)cc1 ?
4.76

Working through the 3 compounds below one at a time, give pIC50 for each.
1. NC1=NN(c2ccccc2)C(=O)C1=NNc1ccc(N=Nc2ccccc2)cc1
2. N#Cc1nn(-c2ccc(N=Nc3ccccc3)cc2)c(=S)n(-c2ccccc2)c1=O
3. NC1=NNC(=O)C1=NNc1ccc(N=Nc2ccccc2)cc1

1. 5.16
2. 5.14
3. 4.95

---

Target: EGFR^T790M (Homo sapiens, UniProt P00533, T790M)
Sequence (P00533 25-1210 T790M): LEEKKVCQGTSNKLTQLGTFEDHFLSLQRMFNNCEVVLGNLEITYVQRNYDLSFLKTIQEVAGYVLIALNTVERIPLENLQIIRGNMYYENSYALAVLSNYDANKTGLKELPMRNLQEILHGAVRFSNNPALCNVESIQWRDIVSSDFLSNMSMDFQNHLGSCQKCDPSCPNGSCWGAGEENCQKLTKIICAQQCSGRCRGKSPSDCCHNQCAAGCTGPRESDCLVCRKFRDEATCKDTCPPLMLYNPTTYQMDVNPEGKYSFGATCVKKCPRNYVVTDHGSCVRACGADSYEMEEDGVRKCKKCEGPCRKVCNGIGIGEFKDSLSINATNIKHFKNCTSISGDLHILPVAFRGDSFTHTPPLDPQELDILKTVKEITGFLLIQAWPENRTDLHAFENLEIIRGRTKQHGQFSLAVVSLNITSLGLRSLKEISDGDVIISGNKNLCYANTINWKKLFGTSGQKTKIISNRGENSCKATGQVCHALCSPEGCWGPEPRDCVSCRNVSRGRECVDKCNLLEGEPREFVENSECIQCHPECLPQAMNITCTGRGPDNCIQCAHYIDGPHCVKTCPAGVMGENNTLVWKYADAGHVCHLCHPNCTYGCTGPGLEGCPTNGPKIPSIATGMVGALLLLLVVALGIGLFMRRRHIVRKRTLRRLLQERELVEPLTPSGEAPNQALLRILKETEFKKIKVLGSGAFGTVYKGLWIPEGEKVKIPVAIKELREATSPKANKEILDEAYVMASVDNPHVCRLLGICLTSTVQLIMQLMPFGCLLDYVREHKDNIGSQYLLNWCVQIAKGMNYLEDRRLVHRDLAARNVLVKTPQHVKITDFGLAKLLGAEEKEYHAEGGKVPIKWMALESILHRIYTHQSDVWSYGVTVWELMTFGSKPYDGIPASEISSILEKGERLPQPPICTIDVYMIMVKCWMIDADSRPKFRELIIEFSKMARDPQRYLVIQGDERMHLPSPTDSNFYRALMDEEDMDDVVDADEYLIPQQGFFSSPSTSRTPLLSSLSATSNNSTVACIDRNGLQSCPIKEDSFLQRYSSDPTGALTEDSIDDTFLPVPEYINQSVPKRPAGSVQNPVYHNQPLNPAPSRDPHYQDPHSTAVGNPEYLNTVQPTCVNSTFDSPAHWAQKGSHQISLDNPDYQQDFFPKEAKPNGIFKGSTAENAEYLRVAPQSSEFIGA
Test: EGFR^T790M kinase inhibitory assay
measurement kind: IC50
Write the numeric value and append its unit.

Reference set (3 entries):
# input compound: NC1=NOC(=O)C1=NNc1ccc(N=Nc2ccccc2)cc1 ; wanted: its IC50
2.1 µM

# input compound: N#Cc1nn(-c2ccc(N=Nc3ccccc3)cc2)c(=O)[nH]c1=O ; wanted: its IC50
0.95 µM

# input compound: NC1=NN(c2ccc([N+](=O)[O-])cc2[N+](=O)[O-])C(=O)C1=NNc1ccc(N=Nc2ccccc2)cc1 ; wanted: its IC50
0.35 µM

Consider now this further compound.
# input compound: N#Cc1nn(-c2ccc(N=Nc3ccccc3)cc2)c(=S)[nH]c1=O ; wanted: its IC50
2.5 µM

---

Kindly state fold times more toxic in HepG-2 than in VERO normal cells for each of the entries shown.
System: HepG2
Assay: MTT anti-proliferative assay, HepG2
Type: cell-based
Conditions: HepG-2 versus VERO
Give bare numbers, in fold.

Reference set (3 entries):
# input compound: NC1=NN(c2ccc([N+](=O)[O-])cc2[N+](=O)[O-])C(=O)C1=NNc1ccc(N=Nc2ccccc2)cc1 ; wanted: its fold times more toxic in HepG-2 than in VERO normal cells
5.49

# input compound: NC1=NN(c2ccccc2)C(=O)C1=NNc1ccc(N=Nc2ccccc2)cc1 ; wanted: its fold times more toxic in HepG-2 than in VERO normal cells
5.72

# input compound: N#Cc1nn(-c2ccc(N=Nc3ccccc3)cc2)c(=S)n(-c2ccccc2)c1=O ; wanted: its fold times more toxic in HepG-2 than in VERO normal cells
6.39

Consider now this further compound.
# input compound: N#Cc1nn(-c2ccc(N=Nc3ccccc3)cc2)c(=N)n(S(=O)(=O)c2ccc(N)cc2)c1=O ; wanted: its fold times more toxic in HepG-2 than in VERO normal cells
6.86

---

Kindly state pIC50 for each of the entries shown.
Test system: HCT-116
Test: MTT anti-proliferative assay, HCT-116
Assay type: cell-based
Settings: Homo sapiens, HCT-116, 72 h, read-out: IC50 HCT116
Give bare numbers, as −log10 of the molar value.

Reference set (3 entries):
# input compound: N#Cc1nn(-c2ccc(N=Nc3ccccc3)cc2)c(=S)[nH]c1=O [Compound 11] ; wanted: its pIC50
4.42

# input compound: NC(=O)N1N=C(N)C(N=Nc2ccc(N=Nc3ccccc3)cc2)C1=O (stereo not drawn) [Compound 7] ; wanted: its pIC50
4.76

# input compound: NC1=NNC(=O)C1=NNc1ccc(N=Nc2ccccc2)cc1 [Compound 4] ; wanted: its pIC50
4.95

Working through the 3 compounds below one at a time, give pIC50 for each.
1. N#Cc1nn(-c2ccc(N=Nc3ccccc3)cc2)c(=S)n(-c2ccccc2)c1=O [Compound 10]
2. NC1=NN(c2ccc([N+](=O)[O-])cc2[N+](=O)[O-])C(=O)C1=NNc1ccc(N=Nc2ccccc2)cc1 [Compound 6]
3. N#Cc1nn(-c2ccc(N=Nc3ccccc3)cc2)c(=N)[nH]c1=O [Compound 13]

1. 5.03
2. 5.00
3. 4.70

Sourced from paper PMC10695193
